Would you mind telling me the reported Ki of each entry?
# tgt: T1, human Y1 receptor (human, UniProt P25929 1-384)
# T1 construct: Transiently expressed in COS-7 cells; membranes used; also called cloned human Y1 receptor (Larhammar et al., 1992)
# T1 sequence: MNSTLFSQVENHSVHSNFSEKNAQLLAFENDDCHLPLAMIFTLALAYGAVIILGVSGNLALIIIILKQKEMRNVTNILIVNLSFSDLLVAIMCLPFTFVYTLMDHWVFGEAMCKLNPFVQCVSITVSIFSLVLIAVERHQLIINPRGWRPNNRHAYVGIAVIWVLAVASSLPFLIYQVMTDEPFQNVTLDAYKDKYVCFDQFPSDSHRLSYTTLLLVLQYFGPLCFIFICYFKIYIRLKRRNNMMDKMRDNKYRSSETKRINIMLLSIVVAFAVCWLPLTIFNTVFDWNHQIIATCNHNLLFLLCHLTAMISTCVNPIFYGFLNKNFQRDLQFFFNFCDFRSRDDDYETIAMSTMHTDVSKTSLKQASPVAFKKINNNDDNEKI
# method: 125I-PYY displacement, COS-7 membranes
Where no end group is shown, it is not given here.
Numbers only; they are read as nM.

Qu. // returns reported Ki for input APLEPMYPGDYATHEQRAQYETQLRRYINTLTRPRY-NH2 (peptide, UniProt P06303 30-65, looked up, mature; also called rat PP) [PP, rat]
Ans. 460

Qu. Now this one: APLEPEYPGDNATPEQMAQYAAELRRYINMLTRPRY-NH2 (peptide, UniProt P01302 30-65, looked up, mature; also called bovine PP) [PP, bovine]
Ans. 240
